Test Protocol: Uninfected HeLa-ACE2 24 h live/dead cytotoxicity counter screen
Format: cell-based, human
Condition Context: human, uninfected HeLa-ACE2 cells, geometric mean of replicates; read-out: HeLa-ACE2 uninfected cytotoxicity CC50 GeoMean
Kindly state CC50 at 24 h for each of the entries shown.

# compound N=C(N)Nc1ccc(C(=O)Oc2ccc(S(N)(=O)=O)cc2)cc1 ; its CC50 at 24 h = > 39.8 µM

# compound CC(=O)N1C[C@H](O)C[C@H]1C(=O)N[C@@H](CCCNC(=N)N)C(=O)c1nc2ccccc2s1 ; its CC50 at 24 h = > 39.8 µM

# compound O=c1[nH]c2ccc(C(F)(F)F)cc2c(-c2cc(Cl)ccc2O)c1CCO ; its CC50 at 24 h = 21.4 µM

# compound CC(=N)N1CCC(Oc2ccc(N(Cc3ccc4ccc(C(=N)N)cc4c3)S(=O)(=O)CC(=O)O)cc2)CC1 ; its CC50 at 24 h = > 39.8 µM

Data origin: paper PMC8175350
